target: KRasG12C (M1-K169, biotinylated on the N-terminus) (Homo sapiens (Human), UniProt P01116, G12C); assay: Covalent competition assay: scintillation proximity assay (SPA) quantifying covalent modification of KRASG12C; conditions: competition with radiolabeled covalent probe (Compound B/Compound A), 2 hours incubation, 10 nM KRasG12C
pIC50: −log10 of the molar value.
experimental endpoint: pIC50

(1) C=CC(=O)N1CC2(CC(n3nc(N4CC5(CCOC5)C4)c(-c4c(Cl)c(Cl)cc5[nH]ncc45)c3C)C2)C1 (single isomer, unassigned) [Example 108b]
(2) C=CC(=O)N1CC2(CC(n3nc(N4CCN(C(C)=O)CC4)c(-c4c(C)c(C)cc5[nH]ncc45)c3C)C2)C1 (single isomer, unassigned) [Example 2b]
(3) C=CC(=O)N1CC2(CC(n3nc(N4CCC(O)(CN5CCOCC5)CC4(C)C)c(-c4c(Cl)c(Cl)cc5[nH]ncc45)c3C)C2)C1 (single isomer, unassigned) [Example 238a]
(4) C=CC(=O)N1CC2(CC(n3nc(N4CCC(C(=O)N5CCN(C)CC5)CC4(C)C)c(-c4c(Cl)c(Cl)cc5[nH]ncc45)c3C)C2)C1 (single isomer, unassigned) [Example 211b]
Exercise: Lab note: order the above by reported pIC50, lowest first, highest last. Give the order by naming the labels one after another as requested.
Solution: 2, 1, 3, 4
(2: 5.49, 1: 6.24, 3: 7.44, 4: 8.10)

---

molecular target: KRasG12C (M1-K169, biotinylated on the N-terminus) (Homo sapiens (Human), UniProt P01116, G12C); assay: Covalent competition assay: scintillation proximity assay (SPA) quantifying covalent modification of KRASG12C; settings: competition with radiolabeled covalent probe (Compound B/Compound A), 2 hours incubation, 10 nM KRasG12C
pIC50: −log10 of the molar value.
experimental endpoint: pIC50

[
  {
    "molecule": "C=CC(=O)N1CC2(CC(n3nc(N4CC[C@@H](CN5CCC6COCC65)CC4(C)C)c(-c4c(C)c(Cl)cc5[nH]ncc45)c3C)C2)C1 (single isomer, unassigned) [Example 305a]",
    "pIC50": 5.60
  },
  {
    "molecule": "C=CC(=O)N1CC2(CC(n3nc(N4CCN(CCOC)C[C@]4(C)C(F)F)c(-c4c(Cl)c(C)cc5[nH]ncc45)c3C)C2)C1 (single isomer, unassigned) [Example 178b]",
    "pIC50": 7.32
  },
  {
    "molecule": "C=CC(=O)N1CC2(CC(n3nc(N4CCN(C(=O)OC)CC4(C)C)c(-c4c(Cl)c(C)cc5[nH]ncc45)c3C)C2)C1 (single isomer, unassigned) [Example 125a]",
    "pIC50": 5.66
  }
]

(1) C=CC(=O)N1CC2(CC(n3nc(N4CC[C@@H](CN5CCP(C)(=O)CC5)CC4(C)C)c(-c4c(Cl)c(Cl)cc5[nH]ncc45)c3C)C2)C1 (single isomer, unassigned) [Example 269a]
(2) C=CC(=O)N1CC2(CC(n3nc(N4CCN(C(C)=O)CC45CCC5)c(-c4c(Cl)c(C)cc5[nH]ncc45)c3C)C2)C1 (single isomer, unassigned) [Example 21a]
(3) C=CC(=O)N1CC2(CC(n3nc(N4CCC(N(C)C5COC5)CC45CCC5)c(-c4c(Cl)c(C)cc5[nH]nc(N)c45)c3C)C2)C1 (single isomer, unassigned) [Example 115a]
(4) C=CC(=O)N1CC2(CC(n3nc(N4CCN(C(C)=O)CC4(C)C)c(-c4c(C)c(C)cc5[nH]ncc45)c3C)C2)C1 (single isomer, unassigned) [Example 1a]
Exercise: Falling order of pIC50, please. Provide the labels, sequenced as the question asks.
Solution: 3, 4, 1, 2
